Listed compounds paired with reported z-score
Experiment: P. aeruginosa biofilm formation inhibitors, primary screen, PAO1 strain, BacTiter-Glo luminescence, LB-PBS (AID 1144)
Settings: 12 h, higher = more signal
Activity calls are given as the source filed them. No rule for the calls is given here.
RECORDED_ENDPOINT: z-score

> print(dat)
                                   compound  observed.measurement
1  C#CCCCON=C1C[C@@H](O)[C@@H](O)[C@@H]2[C@@H]3C(=O)N(C(C)(C)C)C(=O)[C@@H]3CC[C@@H]12      0.945 (inactive)
2  O=C1C[C@@H](O)[C@@H](O)[C@@H]2[C@@H]3C(=O)N(C[C@@H]4CCCO4)C(=O)[C@@H]3CC[C@@H]12     -0.213 (inactive)
3  COC(=O)[C@@H]1CC[C@@H](C)[C@H](c2ccc(Br)cc2)N1      0.328 (inactive)
4  COC(=O)C1=C(C)N(Cc2ccccc2)[C@]23O[C@](C(=O)OC)(C(=O)N2[C@@H]1c1ccccc1)C(C(=O)OC)=C3C(=O)OC      -1.25 (inactive)
5  CCOC(=O)[C@H](CC(C)C)NC(=O)CCC1CC(OC(=O)NCCc2ccc(F)cc2)CC2(CCCC(COC(=O)NCC3CCCCC3)O2)O1 (stereo partly drawn)      0.239 (inactive)
6  O=C1C=C[C@@H](O)[C@@H]2[C@@H]3C(=O)N(C[C@@H]4CCCO4)C(=O)[C@@H]3CC[C@@H]12      0.477 (inactive)
7  CSCC[C@@H]1NC(=O)CC=C[C@@H](C)COC(=O)[C@@H](C)COC1=O      0.117 (inactive)
8  CCOC(=O)[C@H](Cc1ccccc1)NC(=O)CCC1CC(OC(=O)NCCc2ccc(F)cc2)CC2(CCCC(COC(=O)NCCOC)O2)O1 (stereo partly drawn)     -0.852 (inactive)

----------
Assay: small-molecule microarray binders of probe aLefty2, primary screen, biochemical, biotinylated probe, 635/667 nm fluorescence (AID 1094);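 also: score merges spot fluorescence near 667 nm with spot signal-to-noise ratio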
Conditions: higher = more signal
// not satisfied strictly below -0.1 in composite z-score; satisfied otherwise

> print(dat)
                                smiles.text   answer.label
1  CO[C@H](C1CCCCC1)[C@H](C)C=CCC(=O)OCCCc1ccccc1  not satisfied
2  Cc1ccc(S(=O)(=O)N[C@H]2COC(=O)CC=C[C@H](C)[C@@H](NS(=O)(=O)c3ccc(C)cc3)COC(=O)CC=C[C@@H]2C)cc1  not satisfied
3  COc1ccc(O[C@H]2C=C[C@@H](c3ccccc3)O[C@@H]2CON=C(C)C)cc1      satisfied
4  C=Cc1ccc([C@H]2N[C@H](C(=O)O)CC[C@@H]2C)cc1      satisfied
5      CC=CC1=C(CO)C(=O)[C@@H]2O[C@@H]2C1=O  not satisfied
6  CO[C@@H]1COC(=O)CC=C[C@H](C)[C@H](OC)COC(=O)[C@H](C)NC(=O)CC=C[C@H]1C  not satisfied
7  O=C1[C@H]2[C@H]3[C@H](O)[C@H](O)CC(=NOCc4ccccc4)[C@@H]3CC[C@H]2C(=O)N1C[C@@H]1CCCO1  not satisfied
8  COC(=O)CC=C[C@@H](C)[C@@H](C=NO[C@@H]1O[C@H](COC(C)=O)[C@@H](OC(C)=O)[C@H](OC(C)=O)[C@H]1OC(C)=O)NS(=O)(=O)c1ccc(C)cc1  not satisfied
